- Tested on: HepG2
- assayExplanation: GSK_TCMDC: Percent inhibition of human HepG2 cell line. Test compounds present at 10uM.
- Format: functional
Parameter Inhibition: see the listing below.
The reply should read as a number followed by its unit.

Recorded results for 5 compounds are shown here.
| cpdSmiles | value |
| --- | --- |
| COC(=O)c1cccc(CNCc2ccc(-c3cccc(-c4nc5cc(C(F)(F)F)ccc5[nH]4)c3)cc2)c1.O=C(O)C(F)(F)F | 5% |
| O=C(Nc1nc2cc(S(=O)(=O)NCc3ccc(Cl)c(Cl)c3)ccc2n1CCCn1ccnc1)c1ccc(Cl)cc1.O=C(O)C(F)(F)F | 0% |
| CC(C)NCc1ccc(-c2ccc(NC(=O)c3cccc(C#N)c3)cc2)cc1.O=C(O)C(F)(F)F | 40% |
| CC(C)(C)c1cc(NC(=O)c2ccc(Cl)c([N+](=O)[O-])c2)cc(C(C)(C)C)c1 | 0% |
| O=C(Cc1cccnc1)N(Cc1ccc(-c2ccc(CNCc3cccnc3)cn2)cc1)C1CCN(Cc2ccccc2)CC1.O=C(O)C(F)(F)F | 8% |

Request: Any idea what Inhibition was measured for `CN1CCN(CCCN(Cc2ccc(-c3ccc(CNC4CCCC4)cc3)cc2)C(=O)CCC2CCCC2)CC1.O=C(O)C(F)(F)F` ?
Response: 92%

Request: Any idea what Inhibition was measured for `O=S(=O)(c1ccccc1Cl)N1CCCCC(c2ccc(C(F)(F)F)cc2)=N1` ?
Response: 22%

Request: Any idea what Inhibition was measured for `c1ccc(COc2ccc(Cn3ccc(-c4ccc(-n5ccnc5)cc4)n3)cc2)cc1.c1ccc(COc2ccc(Cn3nccc3-c3ccc(-n4ccnc4)cc3)cc2)cc1` ?
Response: 2%

###

- Test system: Plasmodium falciparum
- assayExplanation: GSK_TCMDC: Inhibition of Plasmodium falciparum Dd2 in whole red blood cells, using parasite LDH activity as an index of growth. Test compounds present at 2uM
- Format: functional
readoutName: Inhibition (%)
Lab book: enter the figure in %, no units written.

Request: Any idea what Inhibition was measured for `Fc1ccc2[nH]ccc(=NN=CC=Cc3ccccc3)c2c1` ?
Response: 77

Request: Any idea what Inhibition was measured for `CC(=O)c1ccc(NC(=O)Nc2ccc(N(C)c3ccnc(Nc4cccc(CS(C)(=O)=O)c4)n3)cc2)cc1` ?
Response: 98

###

- Tested on: HepG2
- assayExplanation: GSK_TCMDC: Percent inhibition of human HepG2 cell line. Test compounds present at 10uM.
- Assay type: functional
readoutName: Inhibition (%)
Lab book: enter the figure in %, no units written.

Request: Any idea what Inhibition was measured for `N#Cc1ccc(-c2ccc(C(=O)NC3CCN(CCN4CCC(c5cn(CCO)c6ccccc56)CC4)CC3)cc2)cc1` ?
Response: 30

###

- Tested on: Plasmodium falciparum
- assayExplanation: GSK_TCMDC: Inhibition of Plasmodium falciparum 3D7 in whole red blood cells, using parasite LDH activity as an index of growth. Test compounds present at 2uM
- Format: functional
readoutName: Inhibition (%)
Lab book: enter the figure in %, no units written.

Recorded results for 4 molecules are shown here.
| molecule | unitLabel | Inhibition |
| --- | --- | --- |
| COc1ccc2nccc([C@@H](O)CN3CCC(NCc4cc5c(Cl)cc(Cl)cc5[nH]4)CC3)c2c1.O=C(O)C(=O)O | % | 100 |
| Cc1nc(SCC(=O)N2CCCC2=O)c2c(C)c(C)sc2n1 | % | 96 |
| C=CCOC(=O)N1CCC(CNCc2cccc(-c3cccc(-c4nc5cccc(C)c5[nH]4)c3)c2)C1.O=C(O)C(F)(F)F (stereo not given) | % | 100 |
| Cc1onc(-c2ccccc2)c1-c1nc(NCc2ccccc2Cl)no1 | % | 99 |

Now for a further molecule.
Request: Any idea what Inhibition was measured for `O=C(/C=C/c1ccc(Cl)c(Cl)c1)NCCCCCN1CCC(C(=O)Nc2ccc(Cl)c(Cl)c2)CC1` ?
Response: 98
